Values were extracted from the supplement of paper PMC11417369.

Tested on: PfAP2-LT AP2 domain (GST-tagged)
testDetails: gcPBM binding intensity (ln(normalized median fluorescence intensity)); higher = stronger DNA binding
Whole data set: some 25,000 sequences, median “ln(normalized median fluorescence intensity)” near 8.9, cut for the highest 2% near 10. Many of the other results were omitted from the sample, so the highest values are more common in it than they were.
Outcome: fulfilled for gcPBM binding intensity (ln) of at least 9; not fulfilled for anything lower.

AAAACATACATATATACACACATATATATATATATA [CACACA_site1852] : fulfilled
AACTCACGAGGACACACACACATATATATATATATA [CACACA_site4711] : fulfilled
AAAAATATTTTGGTTTGTACATATATTTTTACAATA [XGTACX_site8691] : not fulfilled
TCATAGTATGGACACACACACACACCCATATATATA [CACACA_site5033] : fulfilled
ATAAATATTGGGTGCACACACATAATATATATATAT [CACACA_site2272] : fulfilled
TACACCCATGGACACACACACACGCATAAAAAAAAA [CACACA_site4933] : fulfilled
TAAAATATAAAACACACACACATATATATATATATT [CACACA_site224] : fulfilled
TAAAATGAATAAAATTGTACTTAATAATATTTTAAA [XGTACX_site5532] : not fulfilled
CACATACACATACACATACACACGCATAGAAACATA [CACACA_site2136] : fulfilled
CATTTTTCTATATGTGCATGTAAGATAAGAATAATT [TGCATGCA_site107] : not fulfilled
TACACGCATGGACACACACACACACCCATATATATA [CACACA_site4522] : fulfilled
TACACCCACCAACACACACACACACTAATAAAAAAA [CACACA_site8060] : fulfilled
CATACAGACGAACACACACACATATAAATATAAATA [CACACA_site6443] : fulfilled
TGCAATTGTAAAGGCGCACACATATATATATATATA [CACACA_site4894] : fulfilled
